System: U251 CNS
Assay: NCI-60 one-dose screen, 48 h (100 = growth as untreated, 0 = no growth, -100 = all killed)
Conditions: 10 µM unless noted
This is part of a sample that, as a whole, favours compounds with a hit. Of some 83,000 tested, about 20% had one in any assay. Active and inactive are the calls of the source. How the source made its calls: active means growth percent below 10; inactive means the rest.
MEASURED ENDPOINT: growth

# get_value(readout= growth, system= U251 CNS) for O=C(Nc1ccc(Cl)c(C(F)(F)F)c1)N1CCN(c2cc(-c3cn(-c4ccccc4)nc3-c3cccc(O)c3)ccn2)CC1
11.8% (inactive)

Moving on to COc1cc2cc(C(=O)N3C[C@@H](CCl)c4c3cc(OC(=O)N(CCC(=O)N3CCN(C)CC3)[C@H]3CCSSC3)c3ccccc43)[nH]c2c(OC)c1OC
-68% (active)

Repeat with COc1ccc(NC2=C(I)C(=O)C(C)=C(C)C2=O)cc1
25.9% (inactive)

Next entry: CS(=O)(=O)Nc1cncc(-c2ccc3ncnc(NCc4ccccc4)c3c2)c1
22.1% (inactive)
